The following molecules are shown together with reported inhibition at 10 µM values.
Tested on: SF-539
procedureDetails: NCI single dose screen, SF-539
Assay type: cell-based
experimentalParameters: Homo sapiens, read-out: growth inhibition percentage
measurementName: inhibition at 10 µM

>>> print(df.to_string())
                                   molecule  reading
0  CN1c2ccccc2C(=O)N(NC(=O)Nc2ccc(F)cc2)C1c1ccc(F)cc1 (stereo not shown)    10.1%
1  CN1c2ccccc2C(=O)N(NC(=O)Nc2ccccc2)C1c1ccc(F)cc1 (stereo not shown)    < 10%
2  CN1c2ccccc2C(=O)N(NC(=O)Nc2ccccc2)C1c1ccc([N+](=O)[O-])cc1 (stereo not shown)    < 10%
3  CN1c2ccccc2C(=O)N(NC(=O)Nc2ccc(F)cc2)C1c1ccccc1 (stereo not shown)    < 10%

###

subjectOfTest: wild-type EGFR (Homo sapiens, UniProt P00533)
Sequence (P00533 25-1210): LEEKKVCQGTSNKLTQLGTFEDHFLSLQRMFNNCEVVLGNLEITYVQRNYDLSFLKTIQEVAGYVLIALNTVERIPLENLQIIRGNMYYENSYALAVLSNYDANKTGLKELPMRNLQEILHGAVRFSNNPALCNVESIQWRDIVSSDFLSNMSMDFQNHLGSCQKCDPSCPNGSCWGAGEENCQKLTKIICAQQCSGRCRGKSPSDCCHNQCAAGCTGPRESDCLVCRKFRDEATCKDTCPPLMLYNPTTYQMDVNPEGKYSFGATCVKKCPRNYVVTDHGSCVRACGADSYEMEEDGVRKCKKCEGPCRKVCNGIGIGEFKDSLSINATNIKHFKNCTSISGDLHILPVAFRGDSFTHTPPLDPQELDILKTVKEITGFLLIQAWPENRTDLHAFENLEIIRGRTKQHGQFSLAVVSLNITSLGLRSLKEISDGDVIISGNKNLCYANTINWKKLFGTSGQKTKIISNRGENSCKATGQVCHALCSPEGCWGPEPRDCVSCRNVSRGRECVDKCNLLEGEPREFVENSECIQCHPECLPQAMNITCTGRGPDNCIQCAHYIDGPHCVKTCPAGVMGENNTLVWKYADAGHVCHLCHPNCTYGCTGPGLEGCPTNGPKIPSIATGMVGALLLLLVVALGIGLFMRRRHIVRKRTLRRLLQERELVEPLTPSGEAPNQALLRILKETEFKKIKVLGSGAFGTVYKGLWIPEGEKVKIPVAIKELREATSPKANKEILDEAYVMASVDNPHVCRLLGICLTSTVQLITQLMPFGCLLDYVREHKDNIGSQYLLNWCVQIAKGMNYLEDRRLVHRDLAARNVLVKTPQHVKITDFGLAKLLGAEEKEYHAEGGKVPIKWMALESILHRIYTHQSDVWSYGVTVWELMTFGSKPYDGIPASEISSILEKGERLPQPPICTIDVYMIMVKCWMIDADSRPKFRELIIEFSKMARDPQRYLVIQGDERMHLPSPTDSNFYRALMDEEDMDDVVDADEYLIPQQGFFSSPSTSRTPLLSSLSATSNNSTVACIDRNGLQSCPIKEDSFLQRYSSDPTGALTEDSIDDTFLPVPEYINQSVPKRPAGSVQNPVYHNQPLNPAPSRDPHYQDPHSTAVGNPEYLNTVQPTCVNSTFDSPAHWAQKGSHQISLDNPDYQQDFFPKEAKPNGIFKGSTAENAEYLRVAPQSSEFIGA
measurementName: IC50

In [3]: df
Out[3]:
                                   molecule  measurementname   reading
0  CN1c2ccccc2C(=O)N(NC(=O)Nc2ccc(F)cc2)C1c1ccc([N+](=O)[O-])cc1 (stereo not shown)             IC50   52.4 µM
1  COc1ccc(C2N(NC(=O)Nc3ccc(F)cc3)C(=O)c3ccccc3N2C)cc1 (stereo not shown)             IC50  > 100 µM
2  CC1N(NC(=O)Nc2ccc(F)cc2)C(=O)c2ccccc2N1C (stereo not shown)             IC50  > 100 µM
3  COc1ccc(NC(=O)NN2C(=O)c3ccccc3N(C)C2c2ccc(OC)cc2)cc1 (stereo not shown)             IC50  > 100 µM
4  CN1c2ccccc2C(=O)N(NC(=O)Nc2ccc(F)cc2)C1c1ccccc1 (stereo not shown)             IC50  > 100 µM
5  CN1c2ccccc2C(=O)N(NC(=O)Nc2ccc(F)cc2)C1c1ccc(F)cc1 (stereo not shown)             IC50  > 100 µM
6  CN1c2ccccc2C(=O)N(NC(=O)Nc2ccccc2)C1c1ccc(F)cc1 (stereo not shown)             IC50  > 100 µM
7      CN1CN(NC(=O)Nc2ccccc2)C(=O)c2ccccc21             IC50  > 100 µM
8  CN1c2ccccc2C(=O)N(NC(=O)Nc2ccccc2)C1c1ccc([N+](=O)[O-])cc1 (stereo not shown)             IC50   48.7 µM
9  CN1c2ccccc2C(=O)N(NC(=O)Nc2ccccc2)C1c1ccccc1 (stereo not shown)             IC50  > 100 µM

###

Test system: EKVX
procedureDetails: NCI single dose screen, EKVX
Format: cell-based
experimentalParameters: Homo sapiens, non-small cell lung cancer, single dose 10^−5 M, read-out: growth inhibition percentage
The following compounds are shown together with reported inhibition at 10 µM values.
measurementName: inhibition at 10 µM

>>> df
                                   compound  reading
0  CN1c2ccccc2C(=O)N(NC(=O)Nc2ccccc2)C1c1ccccc1 (stereo not shown) [Compound 6c]    < 10%
1  CN1c2ccccc2C(=O)N(NC(=O)Nc2ccccc2)C1c1ccc(F)cc1 (stereo not shown) [Compound 6d]    < 10%
2  CN1c2ccccc2C(=O)N(NC(=O)Nc2ccc(F)cc2)C1c1ccc(F)cc1 (stereo not shown) [Compound 6n]    16.4%
3  CN1CN(NC(=O)Nc2ccccc2)C(=O)c2ccccc21 [Compound 6a]    < 10%
4  CC1N(NC(=O)Nc2ccc(F)cc2)C(=O)c2ccccc2N1C (stereo not shown) [Compound 6l]    < 10%
5  COc1ccc(NC(=O)NN2C(=O)c3ccccc3N(C)C2c2ccc(OC)cc2)cc1 (stereo not shown) [Compound 6j]    < 10%
6  CN1c2ccccc2C(=O)N(NC(=O)Nc2ccccc2)C1c1ccc([N+](=O)[O-])cc1 (stereo not shown) [Compound 6e]    < 10%
7  CN1c2ccccc2C(=O)N(NC(=O)Nc2ccc(F)cc2)C1c1ccc([N+](=O)[O-])cc1 (stereo not shown) [Compound 6o]    19.8%
8  CN1c2ccccc2C(=O)N(NC(=O)Nc2ccc(F)cc2)C1c1ccccc1 (stereo not shown) [Compound 6m]    10.5%
9  COc1ccc(C2N(NC(=O)Nc3ccc(F)cc3)C(=O)c3ccccc3N2C)cc1 (stereo not shown) [Compound 6p]    < 10%

###

The following compounds are shown together with reported inhibition at 10 µM values.
Test system: UO-31
procedureDetails: NCI single dose screen, UO-31
Type: cell-based
experimentalParameters: Homo sapiens; UO-31, renal cancer; single dose 10^−5 M; read-out: growth inhibition percentage
measurementName: inhibition at 10 µM (%)

In [3]: df
Out[3]:
                                   compound      measurementname  reading
0  CN1c2ccccc2C(=O)N(NC(=O)Nc2ccccc2)C1c1ccc(F)cc1 (stereo not shown)  inhibition at 10 µM     36.2
1  COc1ccc(C2N(NC(=O)Nc3ccc(F)cc3)C(=O)c3ccccc3N2C)cc1 (stereo not shown)  inhibition at 10 µM     42.6
2  CN1c2ccccc2C(=O)N(NC(=O)Nc2ccccc2)C1c1ccccc1 (stereo not shown)  inhibition at 10 µM     19.5
3  COc1ccc(NC(=O)NN2C(=O)c3ccccc3N(C)C2c2ccc(OC)cc2)cc1 (stereo not shown)  inhibition at 10 µM     24.6

###

The following compounds are shown together with reported pIC50 values.
subjectOfTest: double mutant EGFR^L858R/T790M (Homo sapiens, UniProt P00533, L858R/T790M)
Sequence (P00533 25-1210 T790M/L858R): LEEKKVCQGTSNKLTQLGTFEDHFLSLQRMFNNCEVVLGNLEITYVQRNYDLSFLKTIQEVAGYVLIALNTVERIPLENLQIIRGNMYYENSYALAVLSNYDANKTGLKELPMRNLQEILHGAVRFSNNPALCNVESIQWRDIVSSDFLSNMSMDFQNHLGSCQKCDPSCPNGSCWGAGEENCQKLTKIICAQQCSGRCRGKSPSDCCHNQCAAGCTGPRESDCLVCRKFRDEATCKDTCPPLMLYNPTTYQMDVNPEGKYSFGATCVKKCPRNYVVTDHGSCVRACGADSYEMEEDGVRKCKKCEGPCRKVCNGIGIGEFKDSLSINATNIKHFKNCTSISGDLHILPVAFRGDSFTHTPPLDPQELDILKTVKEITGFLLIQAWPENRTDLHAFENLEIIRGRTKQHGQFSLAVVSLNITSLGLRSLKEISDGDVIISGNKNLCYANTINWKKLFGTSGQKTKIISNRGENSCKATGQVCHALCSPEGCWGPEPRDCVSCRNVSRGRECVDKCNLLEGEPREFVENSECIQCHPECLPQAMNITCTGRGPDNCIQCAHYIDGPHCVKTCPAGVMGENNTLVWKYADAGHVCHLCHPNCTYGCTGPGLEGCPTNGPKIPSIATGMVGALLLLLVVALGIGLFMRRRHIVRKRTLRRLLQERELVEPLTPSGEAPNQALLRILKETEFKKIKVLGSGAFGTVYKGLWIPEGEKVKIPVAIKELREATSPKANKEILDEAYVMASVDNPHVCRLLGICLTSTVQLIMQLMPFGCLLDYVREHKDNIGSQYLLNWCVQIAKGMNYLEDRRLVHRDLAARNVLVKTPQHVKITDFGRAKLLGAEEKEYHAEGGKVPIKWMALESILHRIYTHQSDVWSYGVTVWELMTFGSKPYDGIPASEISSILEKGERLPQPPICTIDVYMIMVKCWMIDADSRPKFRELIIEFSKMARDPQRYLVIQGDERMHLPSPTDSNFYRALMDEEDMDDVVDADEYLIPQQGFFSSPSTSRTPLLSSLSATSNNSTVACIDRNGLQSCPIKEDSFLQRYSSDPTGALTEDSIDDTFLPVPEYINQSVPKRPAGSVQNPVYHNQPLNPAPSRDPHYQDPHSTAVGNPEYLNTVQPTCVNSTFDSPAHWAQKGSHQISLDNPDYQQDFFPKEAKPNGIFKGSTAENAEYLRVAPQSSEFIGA
procedureDetails: In vitro EGFR inhibition assay, double mutant
experimentalParameters: double mutant EGFR
pIC50: −log10 of the molar value.
measurementName: pIC50

>>> df
                                   compound                             subjectoftest  reading
0  CN1c2ccccc2C(=O)N(NC(=O)Nc2ccccc2)C1c1ccc([N+](=O)[O-])cc1 (stereo not shown)  double mutant EGFR^L858R/T790M (Homo sapiens, UniProt P00533, L858R/T790M)     5.26
1  CN1c2ccccc2C(=O)N(NC(=O)Nc2ccc(F)cc2)C1c1ccccc1 (stereo not shown)  double mutant EGFR^L858R/T790M (Homo sapiens, UniProt P00533, L858R/T790M)     5.39
2  CN1c2ccccc2C(=O)N(NC(=O)Nc2ccccc2)C1c1ccccc1 (stereo not shown)  double mutant EGFR^L858R/T790M (Homo sapiens, UniProt P00533, L858R/T790M)     5.10
3  CN1c2ccccc2C(=O)N(NC(=O)Nc2ccccc2)C1c1ccc(F)cc1 (stereo not shown)  double mutant EGFR^L858R/T790M (Homo sapiens, UniProt P00533, L858R/T790M)     5.25
4  COc1ccc(NC(=O)NN2C(=O)c3ccccc3N(C)C2c2ccc(OC)cc2)cc1 (stereo not shown)  double mutant EGFR^L858R/T790M (Homo sapiens, UniProt P00533, L858R/T790M)     5.39
5  CN1c2ccccc2C(=O)N(NC(=O)Nc2ccc(F)cc2)C1c1ccc(F)cc1 (stereo not shown)  double mutant EGFR^L858R/T790M (Homo sapiens, UniProt P00533, L858R/T790M)     4.87
6      CN1CN(NC(=O)Nc2ccccc2)C(=O)c2ccccc21  double mutant EGFR^L858R/T790M (Homo sapiens, UniProt P00533, L858R/T790M)     6.34
7  COc1ccc(C2N(NC(=O)Nc3ccc(F)cc3)C(=O)c3ccccc3N2C)cc1 (stereo not shown)  double mutant EGFR^L858R/T790M (Homo sapiens, UniProt P00533, L858R/T790M)     5.27
8  CN1c2ccccc2C(=O)N(NC(=O)Nc2ccc(F)cc2)C1c1ccc([N+](=O)[O-])cc1 (stereo not shown)  double mutant EGFR^L858R/T790M (Homo sapiens, UniProt P00533, L858R/T790M)     4.44
9  CC1N(NC(=O)Nc2ccc(F)cc2)C(=O)c2ccccc2N1C (stereo not shown)  double mutant EGFR^L858R/T790M (Homo sapiens, UniProt P00533, L858R/T790M)     4.77

###

Tested on: HCT-116
procedureDetails: NCI single dose screen, HCT-116
Assay type: cell-based
experimentalParameters: Homo sapiens; HCT-116, colon cancer; single dose 10^−5 M; read-out: growth inhibition percentage
The following compounds are shown together with reported inhibition at 10 µM values.
measurementName: inhibition at 10 µM

>>> df
                                   compound  reading
0  COc1ccc(C2N(NC(=O)Nc3ccc(F)cc3)C(=O)c3ccccc3N2C)cc1 (stereo not shown)      14%
1  CN1c2ccccc2C(=O)N(NC(=O)Nc2ccc(F)cc2)C1c1ccc([N+](=O)[O-])cc1 (stereo not shown)    21.6%
2  CC1N(NC(=O)Nc2ccc(F)cc2)C(=O)c2ccccc2N1C (stereo not shown)    < 10%
3  CN1c2ccccc2C(=O)N(NC(=O)Nc2ccccc2)C1c1ccccc1 (stereo not shown)    16.8%
4  CN1c2ccccc2C(=O)N(NC(=O)Nc2ccc(F)cc2)C1c1ccccc1 (stereo not shown)    < 10%
5  CN1c2ccccc2C(=O)N(NC(=O)Nc2ccccc2)C1c1ccc(F)cc1 (stereo not shown)    < 10%
6  COc1ccc(NC(=O)NN2C(=O)c3ccccc3N(C)C2c2ccc(OC)cc2)cc1 (stereo not shown)    40.6%
7  CN1c2ccccc2C(=O)N(NC(=O)Nc2ccccc2)C1c1ccc([N+](=O)[O-])cc1 (stereo not shown)    53.1%
8      CN1CN(NC(=O)Nc2ccccc2)C(=O)c2ccccc21    < 10%
9  CN1c2ccccc2C(=O)N(NC(=O)Nc2ccc(F)cc2)C1c1ccc(F)cc1 (stereo not shown)    22.9%
